# Tested on: L5178Y
# Protocol: Cytotoxicity against multi-drug resistant mouse L5178Y cells transfected with ABCB1 gene assessed as inhibition of cell growth incubated for 24 hrs by MTT assay
# Format: functional, cell-based
# IC50 per entry

# Compound, Target system, IC50
measured = [
    ("COc1cc(O)c2c(c1)O[C@H](c1ccc(O)cc1)C/C2=N\\NC(=O)c1cccs1", "L5178Y", "12 µM"),
    ("COc1cc(O)c2c(c1)O[C@H](c1ccc(OCC(O)CNC3CCN(Cc4ccccc4)CC3)cc1)CC2=O (stereo not given in full)", "L5178Y", "≥ 11.3 µM"),
    ("COc1ccc([C@@H]2C/C(=N\\NC(=O)Cc3c[nH]c4ccccc34)c3c(O)cc(OC)cc3O2)cc1", "L5178Y", "7.5 µM"),
    ("COc1cc(O)c2c(c1)O[C@H](c1ccc(O)cc1)C/C2=N\\NC(=O)OCc1ccccc1", "L5178Y", "≥ 11.3 µM"),
    ("CN(C)C(=S)N/N=C1\\C[C@@H](c2ccc(O)cc2)Oc2cc(O)cc(O)c21", "L5178Y", "≥ 11.3 µM"),
]

Data origin: ChEMBL document CHEMBL5244266
